tested on: PC-3 prostate; test: NCI tumour cell line growth inhibition, 48 h; in the data active means GI50 below about 0.43 µM; inactive means the rest
Pick from class 1 for active, class 0 for inactive when you respond.

Ask: How did this test come out for `CC1=C(CNO)C2=C(C)C3(CC3)[C@@](C)(O)C(=O)C2=C1` ?
Result: class 0

Ask: How did this test come out for `C#CC#CC#CC#CC#CC#CC#CC#CC[C@@H]1OC[C@@H](COC(=O)O[C@@H](C(=O)O[C@H]2C[C@@]3(O)[C@@H](OC(=O)c4ccccc4)[C@@H]4[C@]5(OC(C)=O)CO[C@@H]5C[C@H](O)[C@@]4(C)C(=O)[C@H](OC(C)=O)C(=C2C)C3(C)C)[C@@H](NC(=O)c2ccccc2)c2ccccc2)O1` ?
Result: class 1

Ask: How did this test come out for `CCCCC[C@@H](C/C=C/CCC(=O)NC/C(=C/Cl)[C@H]1C(=O)C(C)(C)C(=O)[C@@H](C)[C@@]1(C)O)OC` ?
Result: class 0

Ask: How did this test come out for `OCCCCC#Cc1ccccc1C#Cc1ccc(C(F)(F)F)cc1` ?
Result: class 0

Ask: How did this test come out for NC(=O)c1ncn(C2OC(CO)C(O)C2O)c1N (stereo not drawn) ?
Result: class 0

Ask: How did this test come out for `COc1ccc(Cc2nc3cc(OC)c(OC)cc3c(=O)[nH]2)cc1` ?
Result: class 0

Ask: How did this test come out for O=C1CCS/C(=N/S(=O)(=O)c2ccc(N3N=C4c5ccccc5CC4C3c3cccs3)cc2)N1Cc1ccccc1 (stereo not drawn) ?
Result: class 0

Ask: How did this test come out for c1cncc(C2ONC3=NCCN32)c1 (stereo not drawn) ?
Result: class 0

Ask: How did this test come out for `CCN1CCN(c2nc(NNC(=O)c3ccccc3)nc(N3CCN(C(c4ccccc4)c4ccccc4)CC3)n2)CC1` ?
Result: class 0

Ask: How did this test come out for O=C(c1ccccc1)C(Br)C(Br)c1ccccc1 (stereo not drawn) ?
Result: class 0

Ask: How did this test come out for `C=C(Cn1c2ccccc2c(=O)c2ccccc21)c1ccc(C(=O)Nc2ccccc2N)cc1` ?
Result: class 0

Ask: How did this test come out for `COc1ccc(/C=C/C(C)=N/OCC(=O)Nc2ccc(Cl)cc2)cc1` ?
Result: class 0

Ask: How did this test come out for `CNCc1ccc(-c2[nH]c3cc(F)cc4c3c2CCNC4=O)cc1` ?
Result: class 0

---

tested on: MDA-MB-435; test: NCI tumour cell line growth inhibition, 48 h
reported-metric: TGI (µM)
Just the number in µM, nothing appended.

Ask: Suppose we examine the molecule `NC(N)=N/N=C(/c1ccccc1)c1ccccc1F` ; what TGI value has been reported?
Result: 3.81

Ask: Suppose we examine the molecule CC[C@]1(Cc2ccc(OC)c(OC)c2)C=[N+]([O-])O[C@H](OC2CCCC2(c2ccccc2)c2ccccc2)[C@@H]1OC(=O)C(C)(C)C (stereo partly specified) ; what TGI value has been reported?
Result: 4.12

Ask: Suppose we examine the molecule `CN(/N=C\c1ccc2ccccc2c1)C1=NCCCN1` ; what TGI value has been reported?
Result: 30.8

Ask: Suppose we examine the molecule `CNCc1ccc(-c2[nH]c3cc(F)cc4c3c2CCNC4=O)cc1` ; what TGI value has been reported?
Result: 36.1

Ask: Suppose we examine the molecule `Clc1ccc2c(NCCCN3CCN(c4nc(N5CCOCC5)nc5ccccc45)CC3)ccnc2c1` ; what TGI value has been reported?
Result: 3.36

Ask: Suppose we examine the molecule `CC(=O)O[C@H]1C(=O)[C@@]2(C)[C@H]([C@H](OC(=O)c3ccco3)[C@]3(O)C[C@H](OC(=O)[C@H](O)[C@@H](NC(=O)c4ccccc4)c4ccccc4)C(C)=C1C3(C)C)[C@]1(OC(C)=O)CO[C@@H]1C[C@@H]2O` ; what TGI value has been reported?
Result: 0.0591

Ask: Suppose we examine the molecule `O=C(C(=O)c1cc(Br)ccc1O)c1cc(Br)ccc1O` ; what TGI value has been reported?
Result: 9.25

Ask: Suppose we examine the molecule `COc1ccc(/C=C\c2cc(OC)c(OC)c(OC)c2)c(NS(=O)(=O)c2ccc(C(C)(C)C)cc2)c1O` ; what TGI value has been reported?
Result: 0.735

Ask: Suppose we examine the molecule CNCc1cccc2c1OCCOCCOCCC(C)S(=O)(=O)c1ccc(cc1)-c1cnc(N)c(n1)C(=O)N2 (stereo unspecified) ; what TGI value has been reported?
Result: 3.3

Ask: Suppose we examine the molecule COc1cccc(C2C(C#N)=C(N)Oc3cc4c(cc32)OCO4)c1 (stereo unspecified) ; what TGI value has been reported?
Result: 0.0829

Ask: Suppose we examine the molecule `CCCCC[C@@H](C/C=C/CCC(=O)NC/C(=C/Cl)[C@H]1C(=O)C(C)(C)C(=O)[C@@H](C)[C@@]1(C)O)OC` ; what TGI value has been reported?
Result: 36.3

Ask: Suppose we examine the molecule CN(C)c1ccc(C2CC(C)(O)Oc3cc4c(cc32)OCO4)cc1 (stereo unspecified) ; what TGI value has been reported?
Result: 74.1

Ask: Suppose we examine the molecule `Cc1cc(=O)n2nc(CSc3nnc(Sc4cc(O)ccc4O)s3)sc2n1` ; what TGI value has been reported?
Result: 32.7

Ask: Suppose we examine the molecule `CC1(C)CC[C@]2(C(=O)O)CC[C@]3(C)C(=CC[C@@H]4[C@@]5(C)C/C(=C/c6ccco6)C(=O)C(C)(C)[C@@H]5CC[C@]43C)[C@@H]2C1` ; what TGI value has been reported?
Result: 14.1

Ask: Suppose we examine the molecule `O=C(Nc1ccc(C(F)(F)F)cc1[N+](=O)[O-])c1cccnc1` ; what TGI value has been reported?
Result: 2.5

Ask: Suppose we examine the molecule `COc1cc2c(cc1OCCCOc1ccc(-c3cc4ccccc4c4ccccc34)cc1)N=C[C@@H]1CCCN1C2=O` ; what TGI value has been reported?
Result: 1.31

---

Provide the reported GI50 of each item.
system: SF-295 CNS; assay: NCI tumour cell line growth inhibition, 48 h

Ask: Suppose we examine the compound C#Cc1cccc(NC(=O)C2CCCN(C(=O)CCl)C2)c1 (stereo not given) ; what GI50 value has been reported?
Result: > 82.5 µM

Ask: Suppose we examine the compound `COc1ccc(/C=C\c2cc(OC)c(OC)c(OC)c2)c(NS(=O)(=O)c2ccc(C(C)(C)C)cc2)c1O` ; what GI50 value has been reported?
Result: 1.37 µM

Ask: Suppose we examine the compound C=C1CC/C=C(\C)CC[C@H](C(=C)C)[C@@H](O)/C=C(/CO)CCC1O (stereo not given in full) ; what GI50 value has been reported?
Result: 71.9 µM

Ask: Suppose we examine the compound Nc1ncc(C2[C@H](CNC(=O)c3cc(Br)c[nH]3)C(CNC(=O)c3cc(Br)c[nH]3)[C@@H]2c2cnc(N)[nH]2)[nH]1 (stereo not given in full) ; what GI50 value has been reported?
Result: > 50 µM

Ask: Suppose we examine the compound `CCSc1ncc(Br)c(Sc2nc(N)nc3nc[nH]c23)n1` ; what GI50 value has been reported?
Result: 1.82 µM

---

system: UACC-257 melanoma; test: NCI tumour cell line growth inhibition, 48 h
Provide the reported TGI of each item.

Ask: Suppose we examine the compound COc1c(O)c2c3c(c1OC)-c1ccccc1CC3N(S(=O)(=O)c1ccc(C)cc1)CC2 (stereo unspecified) ; what TGI value has been reported?
Result: > 50 µM

Ask: Suppose we examine the compound CC(C)=CCc1c2c(c(O)c3c(=O)c4c(oc13)-c1ccc(O)cc1OC4C=C(C)C)C=CC(C)(C)O2 (stereo unspecified) ; what TGI value has been reported?
Result: 29.4 µM

Ask: Suppose we examine the compound `O=C(OC[C@@H]1CO1)c1cccc2c(=O)c3ccccc3[nH]c12` ; what TGI value has been reported?
Result: 4.31 µM

Ask: Suppose we examine the compound `CN(/N=C\c1ccc2ccccc2c1)C1=NCCCN1` ; what TGI value has been reported?
Result: 23.6 µM

Ask: Suppose we examine the compound `C=CCN1C(=O)CC(=O)N(NC2=NNC3(C(=O)N2)c2ccccc2-c2ccccc23)C1=S` ; what TGI value has been reported?
Result: > 100 µM

Ask: Suppose we examine the compound COc1ccc(CC[N+]2(C)COc3cc4oc(=O)cc(C)c4cc3C2)cc1OC (stereo unspecified) ; what TGI value has been reported?
Result: > 100 µM

Ask: Suppose we examine the compound `O=c1c2cc(I)ccc2nc(-c2cccs2)n1O` ; what TGI value has been reported?
Result: > 100 µM

Ask: Suppose we examine the compound `c1cc2c(cc1[C@@H]1OC[C@@H]3[C@H]1CO[C@H]3c1ccc3c(c1)OCO3)OCO2` ; what TGI value has been reported?
Result: 80.7 µM

Ask: Suppose we examine the compound COC(=O)[C@]1(C)CCC[C@]2(C)[C@@H]1CCC13C[C@@H](C=CO1)[C@@H](C)CC32O (stereo partly specified) ; what TGI value has been reported?
Result: > 100 µM

Ask: Suppose we examine the compound `Cc1cc2c(cc1Cl)Sc1n[nH]c(=O)n1S2(=O)=O` ; what TGI value has been reported?
Result: > 100 µM

Ask: Suppose we examine the compound CC(C)(CN1CCCCC1)C(=O)CC(SCCS(=O)(=O)O)c1ccc(Cl)cc1 (stereo unspecified) ; what TGI value has been reported?
Result: 20.5 µM

Ask: Suppose we examine the compound `Clc1ccc2c(NCCCN3CCN(c4nc(N5CCOCC5)nc5ccccc45)CC3)ccnc2c1` ; what TGI value has been reported?
Result: 3.42 µM

Ask: Suppose we examine the compound `C/C(=N\NC(=S)N1CCOCC1)c1nc2ncccc2[nH]1` ; what TGI value has been reported?
Result: 77.4 µM

Ask: Suppose we examine the compound `Cc1ccc(S(=O)(=O)N2CCC(C(=O)O)(c3ccccc3)CC2)cc1` ; what TGI value has been reported?
Result: > 100 µM

Ask: Suppose we examine the compound COC(=O)C(=O)C(C(=O)C(=O)Nc1ccc(C)c(C)c1)c1nc2ccc([N+](=O)[O-])cc2[nH]c1=O (stereo unspecified) ; what TGI value has been reported?
Result: > 100 µM

Ask: Suppose we examine the compound `Cc1cc2occ(S(=O)(=O)NC(=O)Nc3ccc(Cl)cc3)c(=O)c2c(=O)o1` ; what TGI value has been reported?
Result: > 100 µM

Ask: Suppose we examine the compound `CN(C)c1ccc(N=C2C=CC(=C(C#N)C#N)c3ccccc32)cc1` ; what TGI value has been reported?
Result: 10.9 µM

Ask: Suppose we examine the compound `Cc1nc(Cc2n[nH]c(C)n2)n[nH]1` ; what TGI value has been reported?
Result: > 100 µM

Ask: Suppose we examine the compound `CC(C)=Nn1cnc2c1NC(C)(C)N=C2C(N)=O` ; what TGI value has been reported?
Result: > 10 µM

Ask: Suppose we examine the compound `COc1cccc(N=NN2CCCC2)c1` ; what TGI value has been reported?
Result: > 100 µM

Ask: Suppose we examine the compound NNC(=O)N/N=C1\CN(c2ccc(Cl)cc2Cl)C(=O)C(=O)C1c1nc2ccccc2o1 (stereo unspecified) ; what TGI value has been reported?
Result: > 100 µM

Ask: Suppose we examine the compound NC(=O)c1ncn(C2OC(CO)C(O)C2O)c1N (stereo unspecified) ; what TGI value has been reported?
Result: > 100 µM

Ask: Suppose we examine the compound `O=C(Oc1ccc2c(c1)CN(Cc1ccccc1)CO2)c1ccccc1` ; what TGI value has been reported?
Result: 29.5 µM

Ask: Suppose we examine the compound `O=C1C=C/C(=C/[C@H]2SSC=C[C@]23C=CC(=O)C3)C1` ; what TGI value has been reported?
Result: 99.8 µM

Ask: Suppose we examine the compound `N#Cc1c(N)nc(Sc2ccccc2N)c(C#N)c1-c1ccccc1` ; what TGI value has been reported?
Result: > 100 µM

Ask: Suppose we examine the compound `Cc1ccccc1Nc1nc2ccccc2nc1NS(=O)(=O)c1ccccc1` ; what TGI value has been reported?
Result: > 100 µM

Ask: Suppose we examine the compound `Cc1ccc(NCCN(C)C)c2c(=O)c3cc(O)ccc3sc12` ; what TGI value has been reported?
Result: 20.7 µM

Ask: Suppose we examine the compound `COc1ccc(-c2cc(-c3ccco3)c(C#N)c(=O)[nH]2)cc1` ; what TGI value has been reported?
Result: > 100 µM

Ask: Suppose we examine the compound CCCCCCCCCCCCOC1C(C(CC(=O)N2CCN(Cc3ccc4c(c3)OCO4)CC2)NS(=O)(=O)c2cc(Cl)cc(Cl)c2)OC2OC(C)(C)OC21 (stereo unspecified) ; what TGI value has been reported?
Result: > 100 µM

Ask: Suppose we examine the compound `Fc1ccc(-c2nn3c(COc4ccc(Cl)cc4)nnc3s2)cc1Oc1ccccc1` ; what TGI value has been reported?
Result: > 100 µM

Ask: Suppose we examine the compound c1cncc(C2ONC3=NCCN32)c1 (stereo unspecified) ; what TGI value has been reported?
Result: > 100 µM

These measurements were taken from PubChem BioAssay (NCI).
